System: HCC1806
Assay: SN-38 sensitivity (MTS), HCC1806
Type: cell-based, human
Conditions: HCC1806 (TNBC), 96 h
readout type: IC50 (nM)
Number only, in nM; omit the unit.

Test item CCc1c2c(nc3ccc(O)cc13)-c1cc3c(c(=O)n1C2)COC(=O)[C@]3(O)CC [SN-38, 7-ethyl-10-hydroxycamptothecin] ; HCC1806; reported IC50 was 1

* * *

Tested on: BxPC-3
Assay: Cytotoxicity (MTS), Example 7, BxPC-3
Format: cell-based, human
Conditions: BxPC-3, 96 h
Experimental: One day prior to adding the ADC, cells were harvested from tissue culture and plated into 96-well plates at 2000 cells per well. […] Plates were incubated at 37° C. for 96 h. […] Growth inhibition was measured as a percent of growth relative to untreated cells using Microsoft Excel and Prism software (non-linear regression to generate sigmoidal dose response curves which yield IC50-values).
readout type: pIC50
pIC50 is a log-scale quantity: -log10 of the concentration expressed in molar.

So for CCc1c2c(nc3ccc(O)cc13)-c1cc3c(c(=O)n1C2)COC(=O)[C@]3(O)CC [SN-38, 7-ethyl-10-hydroxycamptothecin] , the logged pIC50 turned out to be 8.80

* * *

System: Capan-1
Assay: In vitro cytotoxicity, Capan-1
readout type: IC50

Form field IC50, entry CCc1c2c(nc3ccc(O)cc13)-c1cc3c(c(=O)n1C2)COC(=O)[C@]3(O)CC [SN-38, 7-ethyl-10-hydroxycamptothecin] : 3.5 nM

* * *

System: MCF-7
Experiment: SN-38 sensitivity (MTS), MCF-7
Format: cell-based, human
Conditions: MCF-7 (ER+), 96 h
readout type: IC50 (nM)
# number only, unit nM dropped from output

Record summary for CCc1c2c(nc3ccc(O)cc13)-c1cc3c(c(=O)n1C2)COC(=O)[C@]3(O)CC [SN-38, 7-ethyl-10-hydroxycamptothecin] : reported IC50 = 33

Origin of the recorded values: patent US20240352145A1
